Let's go through some pIC50 measurements on Acetylcholinesterase (Torpedo californica, UniProt P04058) together.
Sequence (P04058 whole entry): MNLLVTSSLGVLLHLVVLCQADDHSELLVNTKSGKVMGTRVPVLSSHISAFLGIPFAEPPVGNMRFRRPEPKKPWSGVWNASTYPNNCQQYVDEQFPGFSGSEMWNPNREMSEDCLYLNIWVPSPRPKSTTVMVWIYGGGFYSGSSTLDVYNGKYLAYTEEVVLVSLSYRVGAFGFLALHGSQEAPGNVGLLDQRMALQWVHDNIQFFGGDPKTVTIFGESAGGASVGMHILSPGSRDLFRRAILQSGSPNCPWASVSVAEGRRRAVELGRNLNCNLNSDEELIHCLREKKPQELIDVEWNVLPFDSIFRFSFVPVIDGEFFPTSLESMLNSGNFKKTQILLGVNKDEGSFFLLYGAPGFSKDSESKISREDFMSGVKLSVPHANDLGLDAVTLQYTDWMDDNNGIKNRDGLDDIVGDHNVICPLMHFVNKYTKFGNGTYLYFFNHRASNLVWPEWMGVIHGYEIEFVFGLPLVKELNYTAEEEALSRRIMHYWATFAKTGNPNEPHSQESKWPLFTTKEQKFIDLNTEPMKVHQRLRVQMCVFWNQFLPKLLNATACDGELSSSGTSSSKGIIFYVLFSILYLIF
Interpret pIC50 as the negative base-10 log of the concentration measured in mol/L.

Entry under review: O=C(O)c1cccc(N2C(=O)CCC2=O)c1 . Reported pIC50?
7.48

Then O=C(O)CCC(=O)Nc1cccc(C(=O)O)c1 ?
7.03

---

For each record, write down the corresponding logP.
Assay Name: Partition coefficient (logP)
Type: physicochemical
Condition: octanol/water
Enter the number alone.

What does the data say about its logP? Entry: O=C(O)c1cccc(N2C(=O)CCC2=O)c1
1.81

Can you check O=C(O)/C=C\C(=O)Nc1cccc(C(=O)O)c1 next?
1.09

For O=C(O)CCC(=O)Nc1cccc(C(=O)O)c1 then?
1.41

What do you get for O=C(O)c1cccc(N2C(=O)C=CC2=O)c1 ?
1.48

# credit: ChEMBL document CHEMBL1136819
